Values compiled from patent US20190381014A1.

experiment: Rat PK study (single IV and PO dose, plasma LC-MS/MS); format: in vivo, S-D rats; conditions: S-D rats, PO 10 mg/kg vs IV 2 mg/kg
Measured quantity: F (%)
Respond numerically; units are % and should not be typed.

>>> data_value("COc1cc2c(cc1O[C@@H]1CCOC1)C[C@@H](C(C)C)n1cc(C(=O)O)c(=O)cc1-2")
18.9

query: Recorded F of COCCCOc1cc2c(cc1OC)-c1cc(=O)c(C(=O)O)cn1[C@H](C(C)C)C2 [A, reference compound] , please.
result: 21.5

query: Recorded F of COc1cc2c(cc1OCC1CC(OC)C1)C[C@@H](C(C)C)n1cc(C(=O)O)c(=O)cc1-2 (stereo partly shown) , please.
result: 27.1

query: Recorded F of "COc1cc2c(cc1OC1CCCC1)C[C@@H](C(C)C)n1cc(C(=O)O)c(=O)cc1-2" , please.
result: 11.7
